Target: T1, GRIP1_5, Q9Y3R0
T1 sequence (Q9Y3R0 568-668, limits assumed, looked up): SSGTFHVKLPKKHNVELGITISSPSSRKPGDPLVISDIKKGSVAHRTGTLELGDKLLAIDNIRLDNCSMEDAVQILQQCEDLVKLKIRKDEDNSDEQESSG
Assay: holdup assay
Parameters: key: below the threshold = too weak to quantify, mostly under pKd 3.1 to 4
Settings: plain residues with an end cap or a label only (N-terminal biotin on a linker: ado-ado)

BINDER: NVYGIESVKI [GRIA2, P42262]
pKd: 3.5

BINDER: SPDRDRESIV [SCN5A, Q14524]
pKd: below the threshold

BINDER: NISYRRESAI [KCNJ4, P48050]
pKd: below the threshold

BINDER: SVTSERETNI [SLC16A7, O60669]
pKd: below the threshold

BINDER: QLSFNTDTLC [ABCA2, Q9BZC7]
pKd: below the threshold

BINDER: QRPYRRGSEI [KCNJ18, B7U540]
pKd: below the threshold

BINDER: KSRVAFFEEL [NF2, P35240]
pKd: 3.62

BINDER: KKMLQRRTLL [OR8G1, Q15617]
pKd: below the threshold
